# target_or_test_system: T1, Epstein-Barr virus BHRF1 a.a. 1-161 with C-terminal avi-6his tag (Epstein-Barr virus)
# T1 construct: also called EBV BHRF1; BHRF1-biotin
# T1 chain: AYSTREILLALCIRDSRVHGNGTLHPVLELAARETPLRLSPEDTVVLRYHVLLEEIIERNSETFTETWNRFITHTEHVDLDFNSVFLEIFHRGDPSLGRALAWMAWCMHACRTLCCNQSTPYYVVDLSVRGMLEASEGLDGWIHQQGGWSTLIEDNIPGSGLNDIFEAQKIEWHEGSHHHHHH
# experiment_notes: yeast display library, FACS sort at 100 nM BHRF1, deep sequencing
measured_metric: Log2 enrichment ratio (log2)
Just the number in log2, nothing appended.

binder	measured
Index 31 (designed binder) GDQADKIKDKIKDEAKKKADEFKKRLEQFREYLEKVYSDDLKEIYLTIFWIALALMLIGDAFNEKMLLEWEFKERKKRNLRHEEELKEEKKKREEAEKALEWASKYASQVGKEAAEEG	-3.55
Index 54 (designed binder) GDKHEEAKEEAEKKFEKLRIEARLKAEWLKKAGKYGLQLQELWAKLSDYWIAFALEIIGDLFNFLEEHKEKIEKDLKKGEALDDRADDILKDLEKKAKEVSKHAMKLGREAQQFIELG	-3.22
Index 74 (designed binder) GTDHQAFDEWARRELERIVEEARERAERLREWIEQKDASREELTKFFAIWIAISLMAIGDLFNVKEQAKRLAELLEFLGLQRKEEIEKSKKNAEKLADEAMKKASKLDAKVEKELMQG	-3.38

Looking up Index 26 (designed binder) GRFAERLFKKMLIKQLLNTQYFRDQLKQLKDRSKKYDASDDDKDEATHRWIAFALMAIGDVFNDKLEIELLIELFAKYGLVHEEERKEFRKRLDEFEKIFRKWLDELKKLALEALNQG , I found its Log2 enrichment ratio recorded as -2.74

Looking up Index 67 (designed binder) GNRSEEVKELMRELAERVLLKFRWRADEMNKEKDKKYDKEELKRELTEKWIAFALDAIGDLFNAAELAKKLADLFKKGTGFLEERLERRKEEIEKLEEKGSRKVSYEGRREAEKIESG , I found its Log2 enrichment ratio recorded as -3.48

Looking up Index 19 (designed binder) GERVEEILRKMLDDALLHFLEHRDDARERKERGERHQPRDEEREELSHDWIAAALMAIGDIFNAKLRAEERAEEFLKWGLRSQDDKKELEERAKEAAKIALKWAEEAGKEADEAEKAG , I found its Log2 enrichment ratio recorded as -2.97

Looking up Index 20 (designed binder) GLRFEEIERYAREEADKIADEAKERFEKLKKLFLWLTDKDEERLKMTHLWIAGALEAIGDLFNAAELAKELAEKAARLTSQDANRRDEARKKIDEAEKEAADKVSKAAKEAAKFFEQG , I found its Log2 enrichment ratio recorded as -3.87

Looking up Index 66 (designed binder) GRSKDDATKEAWERLERLLKEFKEKAEKLRDKAQAHYVYKQFALKVTILWIAWALKLIGDAFNFIEEAEKKMRENRERNLISEDDAREEKRKLEEFARRASKKANKIGDDLDRQLELG , I found its Log2 enrichment ratio recorded as -2.03
